// EC50 lookup, one value per entry
# system under test: T1, IL-12 (Human IL12 (His Tag)), Sino Biological Cat. No. CT-050-H08H-20 (human, UniProt P29460 23-328; P29459 23-219)
# T1 construct: Bought His-tagged p35/p40 heterodimer
# T1 sequence (looked up) 1: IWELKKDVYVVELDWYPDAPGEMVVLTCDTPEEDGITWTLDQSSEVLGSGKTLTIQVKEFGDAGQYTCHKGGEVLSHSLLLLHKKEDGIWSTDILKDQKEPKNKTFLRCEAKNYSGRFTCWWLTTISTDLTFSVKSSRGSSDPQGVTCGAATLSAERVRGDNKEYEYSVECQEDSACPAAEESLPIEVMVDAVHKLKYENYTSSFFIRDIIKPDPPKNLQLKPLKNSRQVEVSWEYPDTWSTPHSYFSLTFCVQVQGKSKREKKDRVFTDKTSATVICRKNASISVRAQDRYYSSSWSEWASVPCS
# T1 sequence (looked up) 2: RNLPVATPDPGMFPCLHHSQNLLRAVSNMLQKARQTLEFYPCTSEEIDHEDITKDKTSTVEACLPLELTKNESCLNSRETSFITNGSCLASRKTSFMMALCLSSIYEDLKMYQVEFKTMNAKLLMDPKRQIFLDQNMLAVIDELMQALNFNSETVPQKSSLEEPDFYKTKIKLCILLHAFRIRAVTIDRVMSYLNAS
# method summary: FACS competition, IL-12-His 20 nM on 293T-IL-12RB1&IL-23R cells
Respond with the bare value in µg/mL.

>>> endpoint_result("H5L11 (antibody, human IgG1, kappa, V domains shown, IgG1/kappa) VH: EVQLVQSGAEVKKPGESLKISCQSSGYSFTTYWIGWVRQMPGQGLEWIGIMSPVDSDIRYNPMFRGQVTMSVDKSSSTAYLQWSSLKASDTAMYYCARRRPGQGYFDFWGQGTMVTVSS VL: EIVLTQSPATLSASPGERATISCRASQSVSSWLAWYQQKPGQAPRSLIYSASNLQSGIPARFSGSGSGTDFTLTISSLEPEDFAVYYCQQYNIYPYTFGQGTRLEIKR")
0.414
>>> endpoint_result("H5L10 (antibody, human IgG1, kappa, V domains shown, IgG1/kappa) VH: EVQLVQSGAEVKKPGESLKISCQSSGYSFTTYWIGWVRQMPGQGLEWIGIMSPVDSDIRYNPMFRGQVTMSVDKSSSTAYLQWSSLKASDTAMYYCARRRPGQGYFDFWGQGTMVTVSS VL: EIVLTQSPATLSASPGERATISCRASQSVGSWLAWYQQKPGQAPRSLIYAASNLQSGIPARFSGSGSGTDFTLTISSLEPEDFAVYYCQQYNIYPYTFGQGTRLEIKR")
0.331
>>> endpoint_result("ustekinumab (trade name Stelara) (antibody, V domains shown) VH: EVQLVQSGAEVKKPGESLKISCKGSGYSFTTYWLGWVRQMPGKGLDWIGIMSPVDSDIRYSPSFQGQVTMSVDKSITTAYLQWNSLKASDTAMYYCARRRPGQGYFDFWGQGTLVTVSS VL: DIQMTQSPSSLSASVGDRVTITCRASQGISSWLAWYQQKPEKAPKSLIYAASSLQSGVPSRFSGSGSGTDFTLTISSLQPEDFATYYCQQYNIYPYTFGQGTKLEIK")
0.377

Lab note: next binder to report on.
Query H5L14 (antibody, human IgG1, kappa, V domains shown, IgG1/kappa) VH: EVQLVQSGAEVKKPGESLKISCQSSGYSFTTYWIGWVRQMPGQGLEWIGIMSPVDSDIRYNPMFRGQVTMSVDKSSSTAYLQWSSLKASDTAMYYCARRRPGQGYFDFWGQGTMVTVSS VL: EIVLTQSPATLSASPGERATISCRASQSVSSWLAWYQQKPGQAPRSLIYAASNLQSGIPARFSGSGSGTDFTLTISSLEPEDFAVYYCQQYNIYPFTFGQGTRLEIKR yields EC50 of 0.532
